Collected max response values appear next to each entry.
# System: NIH3T3
# assay-details: Cytotoxic Profiling of Annotated Libraries Using Quantitative High-Throughput Screening (AID 1296008); further: on the % scale 0 is the no-effect control and ±100 the full control effect; nearly all actives have a fitted effect of over 60% in size
# condition-info: Five cell lines viability, CellTiter-Glo ATP luminescence, 48-72 h; stronger effect = lower value
Inconclusive results are not listed. Activity calls are given as the source filed them. The call rests on the fitted dose curve; in most records, active means well fitted inhibition curve with a large enough effect; inconclusive means small, poorly fitted or top-dose-only effect; inactive means flat fitted curve, though single readings scatter. Where a SMILES comes first, the peptide text is derived from it. Bridges are numbered along the chain shown (N, C = ends). [ ]: non-standard residue; d: D form. hArg = N=C(N)NCCCC[C@H](N)C(=O)O; Mpa = O=C(O)CCS
observation-type: max response

- compound: "Nc1ccncc1N"
  observation-type: "max response"
  result: "-1.29% (inactive)"
- compound: "Cc1ccc(S(=O)(=O)NC(=O)NC2CCCCC2)cc1"
  observation-type: "max response"
  result: "0.0689% (inactive)"
- compound: "CCN(CC)S(=O)(=O)c1ccc(C(=O)O)cc1"
  observation-type: "max response"
  result: "-6.52% (inactive)"
- compound: "O=C(O)c1ccccc1OP(=O)(O)O"
  observation-type: "max response"
  result: "3.2% (inactive)"
- compound: "COc1ccccc1OC(=O)Oc1ccccc1OC"
  observation-type: "max response"
  result: "0.277% (inactive)"
- compound: "CNc1c2c(nn1C)CCCC2"
  observation-type: "max response"
  result: "4.21% (inactive)"
- compound: "CCCCCCCC(=O)OCC(O)CO (centres undefined)"
  observation-type: "max response"
  result: "-10.3% (inactive)"
- compound: "C[N+]1(C)CCCC(OC(=O)C(O)(c2ccccc2)c2ccccc2)C1 (centres undefined)"
  observation-type: "max response"
  result: "4.37% (inactive)"
- compound: "CC1CCc2cc(F)cc3c(=O)c(C(=O)O)cn1c23 (centres undefined)"
  observation-type: "max response"
  result: "-1.98% (inactive)"
- compound: "Cn1cc(C(=O)[C@@H]2CCc3nc[nH]c3C2)c2ccccc21"
  observation-type: "max response"
  result: "-0.574% (inactive)"
- compound: "CC(C)=CCC[C@@](C)(O)[C@H]1CC=C(C)CC1"
  observation-type: "max response"
  result: "-5.4% (inactive)"
- compound: "Cc1cc(-n2nc3ccc(Cl)cc3n2)c(O)c(C(C)(C)C)c1"
  observation-type: "max response"
  result: "3.2% (inactive)"
- compound: "NS(=O)(=O)c1ccc(C(=O)O)cc1"
  observation-type: "max response"
  result: "1.17% (inactive)"
- compound: "O=C(NCN1CCOCC1)c1cnccn1"
  observation-type: "max response"
  result: "-0.98% (inactive)"
- compound: "CCN1CC(CCN2CCOCC2)C(c2ccccc2)(c2ccccc2)C1=O (centres undefined)"
  observation-type: "max response"
  result: "2.99% (inactive)"
- compound: "CC(=O)SC[C@@H](Cc1ccccc1)C(=O)NCC(=O)OCc1ccccc1"
  observation-type: "max response"
  result: "-11.9% (inactive)"
- compound: "O=C(/C=C/c1ccc(O)c(O)c1)O[C@@H]1C[C@@](OC(=O)/C=C/c2ccc(O)c(O)c2)(C(=O)O)C[C@@H](O)[C@@H]1O"
  observation-type: "max response"
  result: "-0.0883% (inactive)"
- compound: "COc1cc(O)cc(O)c1"
  observation-type: "max response"
  result: "-7.04% (inactive)"
- compound: "Cn1c([N+](=O)[O-])cnc1COC(N)=O"
  observation-type: "max response"
  result: "2.03% (inactive)"
- compound: "OCCN1C[C@H](O)[C@@H](O)[C@H](O)[C@H]1CO"
  observation-type: "max response"
  result: "-3.52% (inactive)"
- compound: "NC(=O)[C@@H]1CSSCCC(=O)N[C@@H](CCCCN=C(N)N)C(=O)NCC(=O)N[C@@H](CC(=O)O)C(=O)N[C@@H](Cc2c[nH]c3ccccc23)C(=O)N2CCC[C@H]2C(=O)N1 ([Mpa][hArg]GDWPC-NH2; disulfide 1-7)"
  observation-type: "max response"
  result: "-4.92% (inactive)"
- compound: "NC(=O)CC[C@@H](N)C(=O)O"
  observation-type: "max response"
  result: "0.058% (inactive)"
- compound: "CC(=O)[C@@]1(O)CC[C@H]2[C@@H]3C[C@H](C)C4=CC(=O)C=C[C@]4(C)[C@@]3(F)[C@@H](O)C[C@@]21C"
  observation-type: "max response"
  result: "4.42% (inactive)"
- compound: "CCOC(=O)c1cccnc1"
  observation-type: "max response"
  result: "2.73% (inactive)"
- compound: "COc1ccc(-c2cc(=O)c3c(O)cc(O[C@@H]4O[C@H](CO[C@@H]5O[C@@H](C)[C@H](O)[C@@H](O)[C@H]5O)[C@@H](O)[C@H](O)[C@H]4O)cc3o2)cc1O"
  observation-type: "max response"
  result: "-0.449% (inactive)"
- compound: "Cc1ccc(C(C)C)c(O)c1"
  observation-type: "max response"
  result: "0.329% (inactive)"
- compound: "O=C(O)Cc1cn(-c2ccccc2)nc1-c1ccc(Cl)cc1"
  observation-type: "max response"
  result: "4.05% (inactive)"
- compound: "COc1ccc(O)cc1"
  observation-type: "max response"
  result: "-13.1% (inactive)"
- compound: "CCS(=O)(=O)CCn1c([N+](=O)[O-])cnc1C"
  observation-type: "max response"
  result: "-2.73% (inactive)"
- compound: "Cc1ccccc1N=Nc1ccc(N=Nc2c(O)ccc3ccccc23)c(C)c1"
  observation-type: "max response"
  result: "0.522% (inactive)"
- compound: "NCC1CCC(C(=O)Oc2ccc(CCC(=O)O)cc2)CC1 (centres undefined)"
  observation-type: "max response"
  result: "-0.473% (inactive)"
- compound: "CCN(CC)CC1CCCCN1CC(=O)N1c2ccccc2C(=O)Nc2cccnc21 (centres undefined)"
  observation-type: "max response"
  result: "4.32% (inactive)"
- compound: "CNCc1ccccc1"
  observation-type: "max response"
  result: "1.15% (inactive)"
- compound: "O=C(O)CCCc1ccccc1"
  observation-type: "max response"
  result: "-2.38% (inactive)"
- compound: "Cc1c(N(C)C)c(=O)n(-c2ccccc2)n1C"
  observation-type: "max response"
  result: "4.65% (inactive)"
- compound: "O=c1[nH]cnc2nc[nH]c12"
  observation-type: "max response"
  result: "-0.611% (inactive)"
- compound: "C/C=C/C(=O)N(CC)c1ccccc1C"
  observation-type: "max response"
  result: "1.85% (inactive)"
- compound: "O[C@@H]1CO[C@H]2[C@@H]1OC[C@@H]2O"
  observation-type: "max response"
  result: "4.37% (inactive)"
- compound: "O=C(O)CCCCC1CCSS1 (centres undefined)"
  observation-type: "max response"
  result: "1.45% (inactive)"
- compound: "COc1ccc(Cc2cnc(N)nc2N)cc1OC"
  observation-type: "max response"
  result: "-0.487% (inactive)"
- compound: "CCCCCCCCCCCCCCCCC(C(=O)O)C(O)(CC(=O)O)C(=O)O (centres undefined)"
  observation-type: "max response"
  result: "0.574% (inactive)"
- compound: "COC(=O)N/N=C/c1c[n+]([O-])c2ccccc2[n+]1[O-]"
  observation-type: "max response"
  result: "-11.1% (inactive)"
- compound: "CCc1cccc(CC)c1NC(=O)CN(CC(=O)O)CC(=O)O"
  observation-type: "max response"
  result: "-0.454% (inactive)"
- compound: "Cc1cccc(C)c1NC(=O)CC12CCCN1CCC2"
  observation-type: "max response"
  result: "-1.1% (inactive)"
- compound: "Cn1c(=O)c2c(ncn2CCO)n(C)c1=O"
  observation-type: "max response"
  result: "-3.21% (inactive)"
- compound: "O=C(/C=C/c1ccccc1)OCc1ccccc1"
  observation-type: "max response"
  result: "-4.12% (inactive)"
- compound: "NNC(=O)CP(=O)(c1ccccc1)c1ccccc1"
  observation-type: "max response"
  result: "-3.5% (inactive)"
- compound: "OC[C@@H](O)[C@@H](O)[C@H](O)[C@H](O)CO"
  observation-type: "max response"
  result: "-8.98% (inactive)"
- compound: "CC1(c2ccccc2)OC(C(=O)O)=CC1=O (centres undefined)"
  observation-type: "max response"
  result: "-3.39% (inactive)"

Data provenance: PubChem BioAssay (NCATS)
